Subject of test: Beta Lactamase (Pseudomonas aeruginosa, UniProt Q932Y6)
Sequence (Q932Y6 whole entry): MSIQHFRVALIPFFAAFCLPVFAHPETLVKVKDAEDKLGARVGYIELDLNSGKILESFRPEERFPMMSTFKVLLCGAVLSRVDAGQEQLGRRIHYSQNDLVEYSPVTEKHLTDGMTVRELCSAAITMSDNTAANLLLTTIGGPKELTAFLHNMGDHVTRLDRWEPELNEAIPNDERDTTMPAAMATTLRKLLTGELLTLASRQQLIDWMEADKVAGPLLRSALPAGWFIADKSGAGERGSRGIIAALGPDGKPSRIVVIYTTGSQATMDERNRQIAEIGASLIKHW
Method summary: BLA reporter interference, concentration series – BLA reporter cells, FRET fluorescence, artefact control for TLR9-MyD88 binding inhibitor project, dose response (AID 588341);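 note: cell based assay in CHO-K1 cells stably expressing beta-lactamase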
Assay type: cell-based
Active and inactive are the calls of the source. Cut-off read from the data, not from the text of the source: active = IC50 of 10 µM or less and inactive = more.
Choose one outcome from this list and give only that: true (1) = active, false (0) = inactive

| Compound | Assigned category |
| --- | --- |
| O=[N+]([O-])c1c(NCCO)cc(Sc2nc3ccccc3s2)c2nonc12 | true (1) |
| CCc1ccc(Nc2n[n+](-c3ccccc3)c(-c3c(Cl)cccc3Cl)s2)cc1 | true (1) |
| CCOC(=O)COc1ccc2ccccc2c1/C=C/[N+](=O)[O-] | false (0) |
| CCCNC(=O)c1nnsc1S(=O)(=O)c1ccc(Cl)cc1 | false (0) |

Q: Assay outcome for CC(NC(=O)/C(C#N)=C/c1ccc([N+](=O)[O-])o1)c1ccccc1 (stereo not given) : what was it?
Result: true (1)
